- Study system: T1, mouse 4-1BB extracellular domain, His tag (mouse, UniProt P20334 24-187)
- T1 construct: extracellular domain; also called mPro1.ECD.His; not shown: His tag
- T1 sequence (looked up): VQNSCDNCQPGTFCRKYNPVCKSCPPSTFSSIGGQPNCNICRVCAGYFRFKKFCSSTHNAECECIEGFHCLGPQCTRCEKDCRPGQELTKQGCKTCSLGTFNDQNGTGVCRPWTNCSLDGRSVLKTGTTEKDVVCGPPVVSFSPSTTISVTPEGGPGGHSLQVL
- Method description: SPR, Biacore T200; antibody captured on Protein G chip, mouse 4-1BB ECD.His as analyte
pKd: −log10 of the molar value.

>  <Binder>
2.27.16-u1-1-hIgG1L (antibody, V domains shown, Fully human antibody) VH: QEQLQESGPGLVKPSQTLSLTCTVSGGSINSQGYYWSWIRQHPGKGLEWIGYIYDSGSAYYNPSLERRVAISLDTSKNQFSLNLNSVTVADTAVYYCARIVAAGRIDPWGQGTLVTVSS VL: SYVLTQPPSVSVAPGQTARMTCGGDNIGIKIVHWYQQKAGQAPVLVVYDDNDRPSGIPDRFSGSNSGNTATLTISRVAAGDEADYYCQVWDRRSDHVVFGGGTKLTVL

>  <pKd>
8.07

$$$$
